tested on: PDAC085T; assay: Cell viability (CellTiter-Blue), IC50 on PDAC085T; type: cell-based, human; settings: Homo sapiens, 72 h treatment
Consider the following compounds and their measured IC50 readings.
Give the number; nM is assumed, so skip it.

CC[C@@H](C(=O)OC1O[C@@H]2O[C@]3(C)CC[C@H]4[C@H](C)CC[C@@H]([C@H]1C)[C@@]24OO3)[C@@H]1O[C@@H]([C@@H](C)[C@H](O)[C@H](C)C(=O)[C@H](CC)[C@H]2O[C@]3(C=C[C@@H](O)[C@]4(CC[C@@](C)([C@H]5CC[C@](O)(CC)[C@H](C)O5)O4)O3)[C@H](C)C[C@@H]2C)[C@@H](C)C[C@@H]1C (some centres unmarked) [MA-I-081, narasin-dihydroartemisinin prodrug] | 440
CC[C@@H](C(=O)OC1O[C@@H]2O[C@]3(C)CC[C@H]4[C@H](C)CC[C@@H]([C@H]1C)[C@@]24OO3)[C@@H]1O[C@@H]([C@@H](C)[C@H](O)[C@H](C)C(=O)[C@H](CC)[C@H]2O[C@]3(C=C[C@@H](NC4CC4)[C@]4(CC[C@@](C)([C@H]5CC[C@](O)(CC)[C@H](C)O5)O4)O3)[C@H](C)C[C@@H]2C)[C@@H](C)C[C@@H]1C (some centres unmarked) | 70
CC[C@@H](C(=O)[C@@H](C)[C@@H](O)[C@H](C)[C@@H]1O[C@@H]([C@@H](CC)C(=O)O)CC[C@@H]1C)[C@H]1O[C@]2(C=C[C@@H](O)[C@]3(CC[C@@](C)([C@H]4CC[C@](O)(CC)[C@H](C)O4)O3)O2)[C@H](C)C[C@@H]1C | 1560
CC[C@@H](C(=O)O)[C@@H]1O[C@@H]([C@@H](C)[C@H](O)[C@H](C)C(=O)[C@H](CC)[C@H]2O[C@]3(C=C[C@@H](O)[C@]4(CC[C@@](C)([C@H]5CC[C@](O)(CC)[C@H](C)O5)O4)O3)[C@H](C)C[C@@H]2C)[C@@H](C)C[C@@H]1C | 500

Turning now to a further record.
Query string: Given the entry C[C@H]1[C@@H](O)O[C@@H]2O[C@@]3(C)CC[C@H]4[C@H](C)CC[C@@H]1[C@@]24OO3 [DHA, dihydroartemisinin, reference compound] , report its measured IC50.
Result string: 21600

* * *

test system: PDAC090T; assay: Cell viability (CellTiter-Blue), IC50 on PDAC090T; assay type: cell-based, human; details: Homo sapiens, 72 h treatment
measured_endpoint: pIC50
Friendly reminder that pIC50 comes from taking -log10 of the concentration in mol/L.

C#CCN[C@H]1C=C[C@]2(O[C@H]([C@@H](CC)C(=O)[C@@H](C)[C@@H](O)[C@H](C)[C@@H]3O[C@@H]([C@@H](CC)C(=O)OC4O[C@@H]5O[C@]6(C)CC[C@H]7[C@H](C)CC[C@@H]([C@H]4C)[C@@]57OO6)CC[C@@H]3C)[C@@H](C)C[C@H]2C)O[C@@]12CC[C@@](C)([C@H]1CC[C@](O)(CC)[C@H](C)O1)O2 (some centres unmarked) [MA-I-096] | 6.16
C[C@H]1[C@@H](O)O[C@@H]2O[C@@]3(C)CC[C@H]4[C@H](C)CC[C@@H]1[C@@]24OO3 [DHA, dihydroartemisinin, reference compound] | 4.45

Query string: Given the entry CC[C@@H](C(=O)[C@@H](C)[C@@H](O)[C@H](C)[C@@H]1O[C@@H]([C@@H](CC)C(=O)OC2O[C@@H]3O[C@]4(C)CC[C@H]5[C@H](C)CC[C@@H]([C@H]2C)[C@@]35OO4)CC[C@@H]1C)[C@H]1O[C@]2(C=C[C@@H](O)[C@]3(CC[C@@](C)([C@H]4CC[C@](O)(CC)[C@H](C)O4)O3)O2)[C@H](C)C[C@@H]1C (some centres unmarked) [MA-I-023, Salinomycin-dihydroartemisinin prodrug] , report its measured pIC50.
Result string: 5.34

Query string: Given the entry CC[C@@H](C(=O)OC1O[C@@H]2O[C@]3(C)CC[C@H]4[C@H](C)CC[C@@H]([C@H]1C)[C@@]24OO3)[C@@H]1O[C@@H]([C@@H](C)[C@H](O)[C@H](C)C(=O)[C@H](CC)[C@H]2O[C@]3(C=C[C@@H](O)[C@]4(CC[C@@](C)([C@H]5CC[C@](O)(CC)[C@H](C)O5)O4)O3)[C@H](C)C[C@@H]2C)[C@@H](C)C[C@@H]1C (some centres unmarked) [MA-I-081, narasin-dihydroartemisinin prodrug] , report its measured pIC50.
Result string: 6.13

Query string: Given the entry CC[C@@H](C(=O)[C@@H](C)[C@@H](O)[C@H](C)[C@@H]1O[C@@H]([C@@H](CC)C(=O)O)CC[C@@H]1C)[C@H]1O[C@]2(C=C[C@@H](O)[C@]3(CC[C@@](C)([C@H]4CC[C@](O)(CC)[C@H](C)O4)O3)O2)[C@H](C)C[C@@H]1C [Salinomycin] , report its measured pIC50.
Result string: 5.58

* * *

tested on: PDAC030T; experiment: Cell viability (CellTiter-Blue), IC50 on PDAC030T; format: cell-based, human; settings: Homo sapiens, 72 h treatment
measured_endpoint: pIC50
Friendly reminder that pIC50 comes from taking -log10 of the concentration in mol/L.

# annotated cases, reported pIC50 shown
C#CCN[C@@H]1C=C[C@]2(O[C@H]([C@@H](CC)C(=O)[C@@H](C)[C@@H](O)[C@H](C)[C@@H]3O[C@@H]([C@@H](CC)C(=O)OC4O[C@@H]5O[C@]6(C)CC[C@H]7[C@H](C)CC[C@@H]([C@H]4C)[C@@]57OO6)CC[C@@H]3C)[C@@H](C)C[C@H]2C)O[C@@]12CC[C@@](C)([C@H]1CC[C@](O)(CC)[C@H](C)O1)O2 (stereo partly drawn) [MA-I-062, Ironomycin-dihydroartemisinin prodrug] | 6.30
CC[C@@H](C(=O)OC1O[C@@H]2O[C@]3(C)CC[C@H]4[C@H](C)CC[C@@H]([C@H]1C)[C@@]24OO3)[C@@H]1O[C@@H]([C@@H](C)[C@H](O)[C@H](C)C(=O)[C@H](CC)[C@H]2O[C@]3(C=C[C@@H](O)[C@]4(CC[C@@](C)([C@H]5CC[C@](O)(CC)[C@H](C)O5)O4)O3)[C@H](C)C[C@@H]2C)[C@@H](C)C[C@@H]1C (stereo partly drawn) [MA-I-081, narasin-dihydroartemisinin prodrug] | 7.05

Turning now to a further record.
Query string: Given the entry CC[C@@H](C(=O)[C@@H](C)[C@@H](O)[C@H](C)[C@@H]1O[C@@H]([C@@H](CC)C(=O)O)CC[C@@H]1C)[C@H]1O[C@]2(C=C[C@@H](O)[C@]3(CC[C@@](C)([C@H]4CC[C@](O)(CC)[C@H](C)O4)O3)O2)[C@H](C)C[C@@H]1C [Salinomycin] , report its measured pIC50.
Result string: 5.79

* * *

Consider the following compounds and their measured IC50 readings.
system: PDAC090T; assay: Cell viability (CellTiter-Blue), IC50 on PDAC090T; type: cell-based, human; settings: Homo sapiens, 72 h treatment

# annotated cases, reported IC50 shown
C#CCN[C@@H]1C=C[C@]2(O[C@H]([C@@H](CC)C(=O)[C@@H](C)[C@@H](O)[C@H](C)[C@@H]3O[C@@H]([C@@H](CC)C(=O)OC4O[C@@H]5O[C@]6(C)CC[C@H]7[C@H](C)CC[C@@H]([C@H]4C)[C@@]57OO6)CC[C@@H]3C)[C@@H](C)C[C@H]2C)O[C@@]12CC[C@@](C)([C@H]1CC[C@](O)(CC)[C@H](C)O1)O2 (stereo partly drawn) [MA-I-062, Ironomycin-dihydroartemisinin prodrug] | 2190 nM
CC[C@@H](C(=O)O)[C@@H]1O[C@@H]([C@@H](C)[C@H](O)[C@H](C)C(=O)[C@H](CC)[C@H]2O[C@]3(C=C[C@@H](O)[C@]4(CC[C@@](C)([C@H]5CC[C@](O)(CC)[C@H](C)O5)O4)O3)[C@H](C)C[C@@H]2C)[C@@H](C)C[C@@H]1C | 1160 nM

Query string: Given the entry CC[C@@H](C(=O)OC1O[C@@H]2O[C@]3(C)CC[C@H]4[C@H](C)CC[C@@H]([C@H]1C)[C@@]24OO3)[C@@H]1O[C@@H]([C@@H](C)[C@H](O)[C@H](C)C(=O)[C@H](CC)[C@H]2O[C@]3(C=C[C@@H](NC4CC4)[C@]4(CC[C@@](C)([C@H]5CC[C@](O)(CC)[C@H](C)O5)O4)O3)[C@H](C)C[C@@H]2C)[C@@H](C)C[C@@H]1C (stereo partly drawn) , report its measured IC50.
Result string: 180 nM
